Kindly supply the reported Ratio values for the records listed here.
# experimentNotes: Uptake ratio Ki of norepinephrine relative to dopamine at monoamine transporter

QUERY: Give the value of Ratio reported for the following: CCC(=O)C1C2CC3CCC1N3C/C2=C\c1ccc(Cl)c(Cl)c1 (stereo not drawn)
RESULT: 0.1

QUERY: Answer with the recorded Ratio of COC(=O)C1C2CC3CCC1N3C/C2=C\c1ccc2ccccc2c1 (stereo not drawn) only.
RESULT: 0.21

QUERY: Give Ratio for O=C(OCC1C2CC3CCC1N3C/C2=C\c1cccc(Cl)c1)c1ccccc1 (stereo not drawn)
RESULT: 1.63

QUERY: Identify Ratio associated with the compound COC(=O)C1C2CC3CCC1N3C/C2=C\c1cc2ccccc2c2ccccc12 (stereo not drawn)
RESULT: 7.93

QUERY: Fill in Ratio for record O=C(Oc1ccccc1)C1C2CC3CCC1N3C/C2=C\c1ccc(Cl)c(Cl)c1 (stereo not drawn)
RESULT: 0.54

QUERY: Quick one: give measured Ratio for CC(=O)OCC1C2CC3CCC1N3C/C2=C\c1ccc(Cl)c(Cl)c1 (stereo not drawn)
RESULT: 0.34

QUERY: Look up and state reported Ratio for COC(=O)C1C2CC3CCC1N3C/C2=C\c1ccc(Br)cc1 (stereo not drawn)
RESULT: 0.36

QUERY: Supply recorded Ratio for CNC(=O)C1C2CC3CCC1N3C/C2=C\c1ccc(Cl)c(Cl)c1 (stereo not drawn) here.
RESULT: 0.11

QUERY: Determine from records and report Ratio for CON(C)C(=O)C1C2CC3CCC1N3C/C2=C\c1ccc(Cl)c(Cl)c1 (stereo not drawn)
RESULT: 0.05

QUERY: Return Ratio (reported value) for this compound: COC(=O)C1C2CC3CCC1N3C/C2=C\c1ccc(C)c(Cl)c1 (stereo not drawn)
RESULT: < 0.02

QUERY: Find the measured Ratio of O=C(OCC1C2CC3CCC1N3C/C2=C\c1ccc2ccccc2c1)c1ccccc1 (stereo not drawn) and report it.
RESULT: 0.58

QUERY: Dear colleague, please send me the reported Ratio for COC(=O)C1C2CC3CCC1N3C/C2=C\c1cccc(Cl)c1 (stereo not drawn) when you can.
RESULT: 0.03

QUERY: Supply reported Ratio belonging to this compound: CN(C)C(=O)C1C2CC3CCC1N3C/C2=C\c1ccc(Cl)c(Cl)c1 (stereo not drawn)
RESULT: 0.3

QUERY: Query Ratio for COC(=O)C1C2CC3CCC1N3C/C2=C\c1ccc(Cl)c(Cl)c1 (stereo not drawn)
RESULT: 0.52

QUERY: Please report Ratio for the following compound: COC(=O)C1C2CC3CCC1N3C/C2=C\c1ccc(I)cc1Cl (stereo not drawn)
RESULT: 0.08

QUERY: For O=C(OCC1C2CC3CCC1N3C/C2=C\c1ccc(Cl)c(Cl)c1)c1ccc2ccccc2c1 (stereo not drawn) , write its Ratio.
RESULT: < 0.6

QUERY: Return Ratio for the following compound: CC(=O)OCC1C2CC3CCC1N3C/C2=C\c1ccc2ccccc2c1 (stereo not drawn)
RESULT: 1.03

QUERY: Assign Ratio to the following record: COC(=O)C1C2CC3CCC1N3C/C2=C\c1ccc(C)cc1 (stereo not drawn)
RESULT: 0.22

QUERY: Assign Ratio to the following record: COC(=O)C1C2CC3CCC1N3C/C2=C\c1cc(Cl)cc(Cl)c1 (stereo not drawn)
RESULT: 0.73

QUERY: Supply recorded Ratio for COC(=O)C1C2CC3CCC1N3C/C2=C\c1ccc(I)c(Cl)c1 (stereo not drawn) here.
RESULT: 0.09

QUERY: Could you please provide reported Ratio for O=C(OCC1C2CC3CCC1N3C/C2=C\c1ccc(Cl)c(Cl)c1)c1ccc(I)cc1 (stereo not drawn) ? Thanks!
RESULT: 0.48

QUERY: For the compound COC(=O)C1C2CC3CCC1N3C/C2=C\c1ccccc1 (stereo not drawn) , report Ratio.
RESULT: 0.11

QUERY: Report Ratio for COC(=O)C1C2CC3CCC1N3C/C2=C\c1ccc(OC)cc1 (stereo not drawn)
RESULT: 0.06

QUERY: Report Ratio, nothing else, for this compound: O=C(OCC1C2CC3CCC1N3C/C2=C\c1ccc(Br)cc1)c1ccccc1 (stereo not drawn)
RESULT: 1.35

QUERY: Look up and state reported Ratio for COC(=O)C1C2CC3CCC1N3C/C2=C\c1cccc2ccccc12 (stereo not drawn)
RESULT: 0.55

QUERY: Give a short answer stating reported Ratio for COC(=O)C1C2CC3CCC1N3C/C2=C\c1ccc(/C=C2\CN3C4CCC3C(C(=O)OC)C2C4)cc1 (stereo not drawn) .
RESULT: 0.86

QUERY: Identify measured Ratio corresponding to CC(=O)OCC1C2CC3CCC1N3C/C2=C\c1cccc(Cl)c1 (stereo not drawn)
RESULT: 0.2

QUERY: Return Ratio for the following compound: COC(=O)C1C2CC3CCC1N3C/C2=C\c1ccc(Cl)cc1 (stereo not drawn)
RESULT: 0.24

QUERY: State its Ratio: COC(=O)C1C2CC3CCC1N3C/C2=C\c1ccc(F)cc1 (stereo not drawn)
RESULT: 0.09

QUERY: # return recorded Ratio for entry COC(=O)C1C2CC3CCC1N3C/C2=C\c1ccc(Br)c(Cl)c1 (stereo not drawn)
RESULT: 0.08

QUERY: Identify the reported Ratio for the following entry. O=C(OCC1C2CC3CCC1N3C/C2=C\c1ccc(Br)c(Cl)c1)c1ccccc1 (stereo not drawn)
RESULT: < 0.38

QUERY: Return Ratio for the following compound: Clc1ccc(/C=C2\CN3C4CCC3C(/C=C\c3ccccc3)C2C4)cc1Cl (stereo not drawn)
RESULT: 1.32

QUERY: Please indicate Ratio recorded for COC(=O)C1C2CC3CCC1N3C/C2=C\c1ccc(F)c(F)c1 (stereo not drawn)
RESULT: 0.05
